// values below are reported %Inh
Tested on: SRPK2;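 also: KINOMEscan kinase panel screen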
conditions-used: concentration: 1 μM,replicates: in singlicate; n = 1
The answer is to be given in %; state only the numeric part.

- compound: "O=C(Nc1cccc(Oc2ccc3nccn3n2)c1)Nc1cccc(C(F)(F)F)c1"
  %Inh [%]: 0
- compound: "Cn1ccc2ncnc(Oc3ccc(NC(=O)Nc4cccc(C(F)(F)F)c4)c(F)c3)c21"
  %Inh [%]: 49
- compound: "COc1cc2ncn(-c3cc(OCC4CCCCC4)c(C(N)=O)s3)c2cc1OC [GSK204559]"
  %Inh [%]: 0
- compound: "COc1cccc(OC)c1C(=O)Nc1cccc(-c2nn3ccccc3c2-c2ccnc(Nc3cccc(F)c3)n2)c1 [GSK361065]"
  %Inh [%]: 0

Give the measured %Inh of Cl.Cl.NC[C@H](CC1CCCCC1)NC(=O)c1ccc(-c2ccnc3[nH]ccc23)s1 [GSK1581428] . 12

The reported numbers originate from paper PMC5540273.
